Entry source: patent US20150037348A1

# Study target: T1, human IL-12 (human, UniProt P29459 23-219; P29460 23-328)
# T1 construct: recombinant human IL-12 heterodimer (p35/p40, disulfide-linked); also called hIL-12; rhIL-12
# T1 sequence (looked up) 1: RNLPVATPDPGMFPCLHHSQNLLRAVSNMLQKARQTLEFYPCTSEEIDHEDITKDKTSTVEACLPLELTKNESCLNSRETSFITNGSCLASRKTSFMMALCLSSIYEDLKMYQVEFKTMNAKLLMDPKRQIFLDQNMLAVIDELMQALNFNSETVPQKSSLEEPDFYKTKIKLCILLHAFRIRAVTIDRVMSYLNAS
# T1 sequence (looked up) 2: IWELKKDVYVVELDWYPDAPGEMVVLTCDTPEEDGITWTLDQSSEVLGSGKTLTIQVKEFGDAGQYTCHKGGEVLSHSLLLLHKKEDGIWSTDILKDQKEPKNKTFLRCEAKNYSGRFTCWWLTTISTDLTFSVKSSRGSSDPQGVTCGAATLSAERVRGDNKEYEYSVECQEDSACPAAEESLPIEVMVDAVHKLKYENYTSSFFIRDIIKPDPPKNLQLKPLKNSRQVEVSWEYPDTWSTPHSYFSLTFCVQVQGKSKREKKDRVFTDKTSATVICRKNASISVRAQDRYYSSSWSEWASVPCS
# Protocol: RB assay: 125I-hIL-12 binding to PHA blasts
In this section we review reported pIC50 values for a set of binders.
pIC50 here: minus log base 10 of the concentration, concentration in moles per litre.

149-9 (scFv, V domains shown, scFv) VH: QVQLVQSGGGVVQPGRSLRLSCAASGFTFSSYGMHWVRQAPGKGLEWVAFIRYDGSNKYYADSVKGRFTISRDNSKNTLYLQMKSLRAEDTAVYYCKTHGSHDNWGHGTMVTVSS VL: SYVLTQPPSVSGTPGQRVTISCSGGRSNIGSNTVKWYQQLPGTAPKLLIYGNDQRPSGVPDRFSGSKSGTSASLAITGVQAEDEADYYCQSYERGFTGSMVFGTGTKVTVL : 9.74

API: the following record is the query input.
[ask] GET /values?readout=pIC50&item= 149-5 (scFv, V domains shown, scFv) VH: QVQLVQSGGGVVQPGRSLRLSCAASGFTFSSYGMHWVRQAPGKGLEWVAFIRYDGSNKYYADSVKGRFTISRDNSKNTLYLQMKSLRAEDTAVYYCTTHGSHDTWGQGTMVTVSS VL: SYVLTQPPSVSGTPGQRVTISCSGGRSNIGSNTVKWYQQLPGTAPKLLIYGNDQRPSGVPDRFSGSKSGTSASLAITGVQAEDEADYYCQSYDSSLWGTRVFGTGTKVTVLG
[reply] 9.92
